assayedTarget: histamine receptor H1 (Homo sapiens, UniProt P35367)
Sequence (P35367 whole entry): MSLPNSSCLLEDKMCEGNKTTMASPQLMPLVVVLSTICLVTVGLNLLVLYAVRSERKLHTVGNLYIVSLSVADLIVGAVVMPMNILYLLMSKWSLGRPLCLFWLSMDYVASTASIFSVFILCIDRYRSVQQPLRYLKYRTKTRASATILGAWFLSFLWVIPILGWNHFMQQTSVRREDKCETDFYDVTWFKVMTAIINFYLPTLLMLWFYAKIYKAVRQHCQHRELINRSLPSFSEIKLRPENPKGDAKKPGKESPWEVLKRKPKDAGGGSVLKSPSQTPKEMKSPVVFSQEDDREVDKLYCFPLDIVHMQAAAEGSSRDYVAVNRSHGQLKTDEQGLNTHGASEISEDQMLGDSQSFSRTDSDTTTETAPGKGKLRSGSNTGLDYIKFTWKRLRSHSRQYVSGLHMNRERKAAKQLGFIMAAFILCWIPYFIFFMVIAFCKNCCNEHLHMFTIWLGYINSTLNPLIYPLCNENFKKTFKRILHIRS
assayMethodText: Histamine H1 radioligand binding ([3H]Pyrilamine)
protocolConditions: read-out: Histamine Binding (1 μM) H1, percent inhibition of specific binding, 1 μM
Output: class label from inhibition at 1 µM. Mapping: c1 = under 30%, c2 = from 30% up to 50%, c3 = 50% and over

Some solved cases for reference:
C/C(=C\n1c2c(c3ccc(C(F)(F)F)cc31)CN(C)CC2)c1ccc(F)cc1 : c3
CN1CCc2c(c3cc(Cl)ccc3n2/C=C(/c2ccncc2)C(C)(C)C)C1 : c1
Cc1ccc2c(c1)c1c(n2/C(=C(/F)c2ccc(C)nc2)c2ccc(C)nc2)CCN(C)C1 : c3
C/C(=C\n1c2c(c3cc(C)ccc31)CN(C)CC2)c1cccs1 : c3
C/C(=C\n1c2c(c3ccc(F)cc31)CN(C)CC2)c1ccc(F)cc1 : c3

Which class is correct for the following compound? `C/C(=C\n1c2c(c3cc(Cl)ccc31)CNCC2)c1ccncc1`
c1

Which class is correct for the following compound? `C/C(=C\n1c2c(c3cc(F)ccc31)CN(C)CC2)c1ccncc1`
c2

Which class is correct for the following compound? `CN1CCc2c(c3cc(C(=O)O)ccc3n2C#Cc2ccc(F)cc2)C1`
c1

Which class is correct for the following compound? `C=C(Cn1c2c(c3cc(C)ccc31)CN(C)CC2)c1ccc(F)cc1`
c3

Which class is correct for the following compound? `CNc1ccc2c(c1)c1c(n2/C=C(\C)c2ccc(F)cc2)CCN(C)C1`
c2

Which class is correct for the following compound? `CC/C(=C\n1c2c(c3cc(Cl)ccc31)CN(C)CC2)c1ccncc1`
c2

Which class is correct for the following compound? `C/C(=C\n1c2c(c3cc(Cl)c(Cl)cc31)CN(C)CC2)c1ccncc1`
c3

Which class is correct for the following compound? `C/C(=C\n1c2c(c3cccc(Cl)c31)CN(C)CC2)c1ccncc1`
c1

Which class is correct for the following compound? `Cc1ccc2c(c1)c1c(n2C#Cc2cccc(N(C)C)c2)CCN(C)C1`
c1

Which class is correct for the following compound? `C/C(=C\n1c2c(c3ccc(F)cc31)CN(C)CC2)c1ccc(C)nc1`
c1

Which class is correct for the following compound? `CCOC(=O)/C=C(/Cn1c2c(c3cc(C)ccc31)CN(C)CC2)c1ccccc1`
c2

Which class is correct for the following compound? CN1CCc2c(c3cc(Cl)c(Cl)cc3n2CC(C)(O)c2ccncc2)C1 (centres unmarked)
c3

Which class is correct for the following compound? `C/C(=C\n1c2c(c3cc(Cl)ccc31)CN(C)CC2)c1nccs1`
c3

Which class is correct for the following compound? CN1CCc2c(c3cc(Cl)ccc3n2CC(O)(c2ccc(F)cc2)C2CCC2)C1 (centres unmarked)
c3

Which class is correct for the following compound? `CC/C(=C\n1c2c(c3cc(C)ccc31)CN(C)CC2)c1ccncc1`
c1

---

Reported inhibition at 1 µM is given for each of the following compounds.
assayedTarget: histamine receptor H1 (Homo sapiens, UniProt P35367)
assayMethodText: Histamine H1 radioligand binding ([3H]Pyrilamine)
protocolConditions: read-out: Histamine Binding (1 μM) H1, percent inhibition of specific binding, 1 μM
Express it in %; write the number only.

// worked examples, inhibition at 1 µM included
CNC(=O)c1ccc(/C(F)=C(/c2ccc(C(=O)NC)c(F)c2)n2c3c(c4cc(C)ccc42)CN(C)CC3)cc1F : 31
CN1CCc2c(c3cc(Cl)ccc3n2CC(O)c2ccncc2)C1 (centres unmarked) : 91
COc1ccc([C@@](C)(O)Cn2c3c(c4cc(C)ccc42)CN(C)CC3)cc1 : 61
Cc1ccc2c(c1)c1c(n2/C=C/c2ccc(C)nc2)CCN(C)C1 : 85
C/C(=C\n1c2c(c3cc(C)ccc31)CNCC2)c1ccncc1 : 8
C/C(=C\n1c2c(c3cc(C)ccc31)CN(C)CC2)c1ccsc1 : 84
C/C(=C\n1c2c(c3ccc(Cl)cc31)CN(C)CC2)c1ccc(F)cc1 : 66

Now, please, on to the next compound.
Input `C/C(=C/n1c2c(c3cc(C)ccc31)CN(C)CC2)c1cccc(F)c1` , output reported inhibition at 1 µM.
81
